Recorded values, source patent US11001590B2.

assay: log P by HPLC on reversed phase columns (Method L0; [a] acidic, [b] neutral range)
measured_endpoint: chromatographic logP

{"columns": ["compound", "measured_endpoint", "reported_value"],
 "data": [
  ["Cc1nn2c(C(C)C)c(C(=O)N[C@H]3CCOc4ccccc43)cnc2c1-c1ccccc1 [Example 176]", "chromatographic logP", 4.28],
  ["Cc1nn2c(C(C)C)c(C(=O)N[C@H]3CCc4ccccc43)cnc2c1-c1ccc(Cl)nc1 [Example 295]", "chromatographic logP", 4.21],
  ["Cc1nn2c(C(C)C)c(C(=O)N[C@H]3CCc4ccccc43)cnc2c1-c1ccc(OC(F)(F)F)cc1 [Example 331]", "chromatographic logP", 5.41],
  ["Cc1nn2c(C(C)C)c(C(=O)N[C@H]3CCc4ccccc43)cnc2c1-c1cccc(OC(F)F)c1 [Example 337]", "chromatographic logP", 4.7],
  ["Cc1nn2c(C(C)C)c(C(=O)N[C@H]3CCc4ccccc43)cnc2c1-c1ncc(Cl)cc1Cl [Example 209]", "chromatographic logP", 4.51],
  ["Cc1nn2c(C(C)C)c(C(=O)N[C@H]3CCOc4ccccc43)cnc2c1-c1cccc(N2CC(C#N)C2)c1 [Example 444]", "chromatographic logP", 3.91],
  ["Cc1nn2c(C(C)C)c(C(=O)N[C@H]3CCc4ccccc43)cnc2c1-c1c(F)cccc1F [Example 99]", "chromatographic logP", 4.37],
  ["CC(=O)Nc1cc(-c2c(C)nn3c(C4CC4)c(C(=O)N[C@H]4CCOc5ccccc54)cnc23)ccn1 [Example 528]", "chromatographic logP", 1.69],
  ["CC(C)c1c(C(=O)N[C@H]2CCc3ccccc32)cnc2c(-c3ccccc3Cl)c(C(F)F)nn12 [Example 435]", "chromatographic logP", 4.43],
  ["Cc1nn2c(C(C)C)c(C(=O)N[C@H]3CCCc4ccccc43)cnc2c1-c1cccc(N(C)C)c1 [Example 361]", "chromatographic logP", 4.32],
  ["CCn1cc(-c2c(C)nn3c(C(C)C)c(C(=O)N[C@H]4CCc5ccccc54)cnc23)cn1 [Example 374]", "chromatographic logP", 3.44],
  ["Cc1nn2c(C(C)C)c(C(=O)N[C@H]3CCc4ccccc43)cnc2c1-c1cncc(Cl)c1 [Example 314]", "chromatographic logP", 4.19],
  ["CC(C)c1c(C(=O)N[C@H]2CCc3ccccc32)cnc2c(-c3cncc(Cl)c3)c(C(F)(F)F)nn12 [Example 156]", "chromatographic logP", 4.7],
  ["Cc1nn2c(C(C)C)c(C(=O)N[C@H]3CCc4ccccc43)cnc2c1-c1cc(Cl)c(F)c(Cl)c1 [Example 127]", "chromatographic logP", 5.91],
  ["Cc1nn2c(C3CC3)c(C(=O)N[C@H]3CCOc4ccccc43)cnc2c1-c1c(F)cccc1F [Example 445]", "chromatographic logP", 3.43],
  ["Cc1nn2c(C(C)C)c(C(=O)N[C@H]3CCOc4ccccc43)cnc2c1-c1cnn(CC2CC2)c1 [Example 419]", "chromatographic logP", 3.59],
  ["CC(C)c1c(C(=O)N[C@H]2CCCc3ccccc32)cnc2c(-c3cccc(C(F)(F)F)c3)c(Cl)nn12 [Example 72]", "chromatographic logP", 5.85],
  ["CC(C)c1c(C(=O)N[C@H]2CCc3ccccc32)cnc2c(-c3ccccc3Cl)c(Cl)nn12 [Example 79]", "chromatographic logP", 4.79],
  ["Cc1nn2c(N3CCOCC3)c(C(=O)N[C@H]3CCOc4ccccc43)cnc2c1-c1cccc(Cl)c1F [Example 524]", "chromatographic logP", 4.69],
  ["Cc1c(C(=O)N[C@H]2CCc3ccccc32)cnc2c(-c3ccccc3Cl)c(C(F)(F)F)nn12 [Example 81]", "chromatographic logP", 4.24],
  ["Cc1nn2c(C(C)C)c(C(=O)N[C@H]3CCc4ccccc43)cnc2c1-c1cccc(N2CCC2)c1 [Example 372]", "chromatographic logP", 4.67],
  ["Cc1nn2c(C(C)C)c(C(=O)N[C@H]3CCc4ccccc43)cnc2c1-n1cc(Cl)cn1 [Example 447]", "chromatographic logP", 4.13],
  ["Cc1nn2c(C(C)C)c(C(=O)N[C@H]3CCc4ccccc43)cnc2c1-c1cccc(F)c1Cl [Example 165]", "chromatographic logP", 4.74],
  ["Cc1nn2c(C(C)C)c(C(=O)N[C@H]3CCOc4ccccc43)cnc2c1-c1ccc2c(c1)CC(=O)N2 [Example 252]", "chromatographic logP", 2.87],
  ["COc1cccc(-c2c(C)nn3c(C(C)C)c(C(=O)N[C@H]4CCc5ccccc54)cnc23)c1 [Example 289]", "chromatographic logP", 4.51],
  ["CC(C)c1c(C(=O)N[C@H]2CCOc3ccccc32)cnc2c(-c3c(F)cc(F)cc3F)c(C(F)(F)F)nn12 [Example 140]", "chromatographic logP", 4.77]
]}
